From: patent US9656988B2

subject.of.test: BTK (Homo sapiens (Human), UniProt Q06187)
Sequence (Q06187 whole entry): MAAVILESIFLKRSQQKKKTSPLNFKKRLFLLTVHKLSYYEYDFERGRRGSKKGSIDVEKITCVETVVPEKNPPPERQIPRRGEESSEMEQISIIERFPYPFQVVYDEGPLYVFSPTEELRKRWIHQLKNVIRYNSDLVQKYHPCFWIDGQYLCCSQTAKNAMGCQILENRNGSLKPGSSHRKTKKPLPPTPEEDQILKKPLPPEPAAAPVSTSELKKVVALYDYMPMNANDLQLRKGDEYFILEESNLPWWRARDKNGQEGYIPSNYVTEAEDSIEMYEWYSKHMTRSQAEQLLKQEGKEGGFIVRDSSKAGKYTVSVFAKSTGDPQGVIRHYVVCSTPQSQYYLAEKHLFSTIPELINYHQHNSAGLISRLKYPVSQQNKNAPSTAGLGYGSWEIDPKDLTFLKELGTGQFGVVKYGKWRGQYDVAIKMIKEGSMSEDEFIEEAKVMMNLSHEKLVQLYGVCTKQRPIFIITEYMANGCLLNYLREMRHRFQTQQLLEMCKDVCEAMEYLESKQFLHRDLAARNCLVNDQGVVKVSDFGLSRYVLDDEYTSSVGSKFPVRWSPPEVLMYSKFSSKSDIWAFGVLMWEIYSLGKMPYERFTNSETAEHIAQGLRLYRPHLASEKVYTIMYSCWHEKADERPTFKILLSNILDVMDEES
protocol: Btk in vitro inhibitory activity (one of Method A TR-FRET, Method B electrophoretic mobility shift, Method C radiometric filter binding)
Assay type: biochemical
applied.conditions: determined using one of the methods of Example 355a, 355b and 355c; read-out: BTK IC50
pIC50: −log10 of the molar value.
pIC50 values, listed per item

Here's what some known entries look like.
molecule: CC(C)(C)c1ccc(C(=O)N[C@@H]2CCCN(c3nnc(C(N)=O)c(Nc4ccc(-c5ncccn5)cc4)n3)C2)cc1 [Example 56]
metric: pIC50
assay.value: 6.00 to 7.00
--
molecule: CN(C(=O)N[C@@H]1CCCN(c2nnc(C(N)=O)c(Nc3ccc(C(=O)N4CCOCC4)cc3)n2)C1)c1ccccc1 [Example 39]
metric: pIC50
assay.value: 7.00 to 8.00
--
molecule: CN(C)C(=O)N[C@@H]1CCCN(c2cnc(C(N)=O)c(Nc3ccc(C4(C)CCN(C5CCCC5)CC4)cc3)n2)C1 [Example 222]
metric: pIC50
assay.value: > 8.00

Now examine the next entry.
Exercise: Look at this molecule and give its reported pIC50. C[C@@H]1[C@H](NC(=O)N(C)C)CCCN1c1cnc(C(N)=O)c(Nc2ccc(S(C)(=O)=O)cc2)n1 [Example 244]
Solution: > 8.00
